target: BSA (Bos taurus); construct: purchased Millipore Sigma-Aldrich; assay: Far-UV CD secondary structure of BSA (CONTIN-LL deconvolution); type: physicochemical, bovine; settings: 1.0 mg/mL BSA, 25 mM component, 25 °C
Sequence (P02769 25-607): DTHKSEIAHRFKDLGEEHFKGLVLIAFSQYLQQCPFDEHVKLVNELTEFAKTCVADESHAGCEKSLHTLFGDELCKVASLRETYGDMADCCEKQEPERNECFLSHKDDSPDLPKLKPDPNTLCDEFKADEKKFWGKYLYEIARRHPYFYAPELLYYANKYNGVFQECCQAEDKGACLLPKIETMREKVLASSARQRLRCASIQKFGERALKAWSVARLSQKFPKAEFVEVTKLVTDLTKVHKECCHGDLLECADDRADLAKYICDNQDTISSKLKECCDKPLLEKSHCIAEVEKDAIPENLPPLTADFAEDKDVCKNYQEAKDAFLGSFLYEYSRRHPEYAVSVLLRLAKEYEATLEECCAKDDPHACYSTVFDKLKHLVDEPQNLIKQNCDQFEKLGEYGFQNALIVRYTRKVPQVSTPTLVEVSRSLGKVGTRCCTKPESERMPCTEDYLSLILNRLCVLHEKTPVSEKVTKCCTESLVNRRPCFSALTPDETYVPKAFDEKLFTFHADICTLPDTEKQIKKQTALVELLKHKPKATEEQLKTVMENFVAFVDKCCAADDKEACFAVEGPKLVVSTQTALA
Distorted Beta Sheet values, listed per item
Format: numeric value only, no unit, no commentary.

compound	target	readoutKind	numericReadout
CCCCn1cc[n+](C)c1.O=S(=O)([O-])C(F)(F)F [[C4C1Im][CF3SO3]]	BSA (Bos taurus)	Distorted Beta Sheet	0.031

// Distorted Beta Sheet value for CCn1cc[n+](C)c1.O=S(=O)([O-])C(F)(F)C(F)(F)C(F)(F)C(F)(F)F : 0.035

Recorded Distorted Beta Sheet (compound C[N+](C)(C)CCO.C[N+](C)(C)CCO.O=P([O-])(O)O.O=P([O-])(O)O [[N1112(OH)][H2PO4]] ): 0.029

Per the record, OC[C@H]1O[C@@](CO)(O[C@H]2O[C@H](CO)[C@@H](O)[C@H](O)[C@H]2O)[C@@H](O)[C@@H]1O has Distorted Beta Sheet of 0.024

Quick note, Distorted Beta Sheet for C[N+](C)(C)CCO.O=S(=O)([O-])C(F)(F)C(F)(F)C(F)(F)C(F)(F)F [[N1112(OH)][C4F9SO3]] landed at 0.025

----------
target: BSA (Bos taurus); construct: purchased Millipore Sigma-Aldrich; assay: Far-UV CD secondary structure of BSA (CONTIN-LL deconvolution); format: physicochemical, bovine; design: unit not given here; details: 1.0 mg/mL BSA, 5 mM component, 25 °C
Examples of molecules with documented Distorted Beta Sheet follow.

// known answers, use as guide
molecule	Distorted Beta Sheet
C[N+](C)(C)CCO.O=S(=O)([O-])C(F)(F)C(F)(F)C(F)(F)C(F)(F)F [[N1112(OH)][C4F9SO3]]	0.025
CCn1cc[n+](C)c1.O=S(=O)([O-])C(F)(F)C(F)(F)C(F)(F)C(F)(F)F	0.027

Distorted Beta Sheet reported for this molecule CCCCn1cc[n+](C)c1.O=S(=O)([O-])C(F)(F)F [[C4C1Im][CF3SO3]] : 0.025

Form field Distorted Beta Sheet, entry C[N+](C)(C)CCO.C[N+](C)(C)CCO.O=P([O-])(O)O.O=P([O-])(O)O [[N1112(OH)][H2PO4]] : 0.023

So for OC[C@H]1O[C@@](CO)(O[C@H]2O[C@H](CO)[C@@H](O)[C@H](O)[C@H]2O)[C@@H](O)[C@@H]1O [Sucrose, sucrose] , the logged Distorted Beta Sheet turned out to be 0.022

----------
biological target: BSA (Bos taurus); construct: purchased Millipore Sigma-Aldrich; experiment: CD thermal unfolding (Tm) of BSA; format: physicochemical, bovine; details: 1.0 mg/ml BSA, 200 mM component aqueous solution
molecules and their reported Tm, Ellipticity 208 nm
Field format: number, assumed °C, no unit text.

molecule	readoutKind	numericReadout
C[N+](C)(C)CCO.C[N+](C)(C)CCO.O=P([O-])(O)O.O=P([O-])(O)O [[N1112(OH)][H2PO4]]	Tm, Ellipticity 208 nm	76.945
CCCCn1cc[n+](C)c1.O=S(=O)([O-])C(F)(F)F [[C4C1Im][CF3SO3]]	Tm, Ellipticity 208 nm	77.089
C[N+](C)(C)CCO.O=S(=O)([O-])C(F)(F)C(F)(F)C(F)(F)C(F)(F)F [[N1112(OH)][C4F9SO3]]	Tm, Ellipticity 208 nm	92.409

Okay, now this molecule:
Entry OC[C@H]1O[C@@](CO)(O[C@H]2O[C@H](CO)[C@@H](O)[C@H](O)[C@H]2O)[C@@H](O)[C@@H]1O [Sucrose, sucrose] — recorded Tm, Ellipticity 208 nm = 73.063
